Each item that follows carries a reported IC50.
- Tested on: DU145 (prostate cancer)
- Assay procedure: Cytotoxicity assay, DU145 tumor cells
- Format: cell-based
- Experimental parameters: Homo sapiens, DU-145; 96 h treatment; lower limit of the IC50 range, or the IC50 itself (or its bound) where no Upper value is listed; read-out: DU145 IC50 (μm) Lower (μm)
A number alone suffices; assume nM.

O=C1Nc2cc(S(=O)(=O)Cc3c(Cl)cccc3Cl)ccc2S/C1=C\c1ccc(O)c([N+](=O)[O-])c1 [Compound 42]	150

# input for lookup
Data request: Param item = CSc1nccc(/C=C2\Sc3ccc(S(=O)(=O)Cc4c(Cl)cccc4Cl)cc3NC2=O)n1 [Compound 36] ; retrieve measured IC50.
Data returned: 2000

---

Each item that follows carries a reported pIC50.
- Tested on: DU145 (prostate cancer)
- Assay procedure: Cytotoxicity assay, DU145 tumor cells
- Format: cell-based
- Experimental parameters: Homo sapiens, DU-145; 96 h treatment; lower limit of the IC50 range, or the IC50 itself (or its bound) where no Upper value is listed; read-out: DU145 IC50 (μm) Lower (μm)
- Protocol: The effect of the compounds of the invention on tumor cells was determined by the assay described by Latham et al., Oncogene 12:827-837 (1996). […] When necessary, the total number of viable cells was determined by trypsinizing the wells and counting the number of viable cells, as determined by trypan blue exclusion, using a hemacytometer. Where “Lower” and “Upper” value are provided in Table 5, the IC50 was determined to be within that range. […]
pIC50: −log10 of the molar value.

Would you please look over these solved cases?
O=C1Nc2cc(S(=O)(=O)Cc3c(Cl)cccc3Cl)ccc2S/C1=C\c1c(F)cc(F)cc1F [Compound 31]	≤ 6.00
COc1ccc2c(c1)S/C(=C\c1ccc(OC(C)=O)c([N+](=O)[O-])c1)C(=O)N2 [Compound 2]	≤ 6.00

Data request: Param item = COC(=O)c1ccc(/C=C2\Sc3ccc(S(=O)(=O)Cc4c(Cl)cccc4Cl)cc3NC2=O)c([N+](=O)[O-])c1 [Compound 35] ; retrieve measured pIC50.
Data returned: < 5.00

Data request: Param item = COc1ccc2c(c1)S/C(=C\c1ccc(OC(C)=O)c([N+](=O)[O-])c1)C(=O)N2C(C)=O [Compound 40] ; retrieve measured pIC50.
Data returned: 5.70

---

- System: DU145 (prostate cancer)
- Assay procedure: Cytotoxicity assay, DU145 tumor cells
- Type: cell-based
- Experimental parameters: Homo sapiens, DU-145; 96 h treatment; lower limit of the IC50 range, or the IC50 itself (or its bound) where no Upper value is listed; read-out: DU145 IC50 (μm) Lower (μm)
pIC50: −log10 of the molar value.
Measurement kind: pIC50

Data request: Param item = CC(=O)Oc1ccc(/C=C2\Sc3ccc(Cl)cc3NC2=O)cc1[N+](=O)[O-] ; retrieve measured pIC50.
Data returned: ≤ 6.00

---

- Test system: DU145 (prostate cancer)
- Assay procedure: Cytotoxicity assay, DU145 tumor cells
- Format: cell-based
- Experimental parameters: Homo sapiens, DU-145; 96 h treatment; lower limit of the IC50 range, or the IC50 itself (or its bound) where no Upper value is listed; read-out: DU145 IC50 (μm) Lower (μm)
pIC50: −log10 of the molar value.
Measurement kind: pIC50

Would you please look over these solved cases?
O=C1Nc2cc(S(=O)(=O)Cc3c(Cl)cccc3Cl)ccc2S/C1=C\c1ccc(Br)cc1 [Compound 18]	≤ 6.00
O=C1Nc2cc(S(=O)(=O)Cc3c(Cl)cccc3Cl)ccc2S/C1=C\c1ccc(Cl)c([N+](=O)[O-])c1 [Compound 29]	≤ 6.30

# input for lookup
Data request: Param item = O=C1Nc2cc(S(=O)(=O)Cc3c(Cl)cccc3Cl)ccc2S/C1=C\c1ccccc1 [Compound 10] ; retrieve measured pIC50.
Data returned: > 6.00

---

- Test system: DU145 (prostate cancer)
- Assay procedure: Cytotoxicity assay, DU145 tumor cells
- Format: cell-based
- Experimental parameters: Homo sapiens, DU-145; 96 h treatment; lower limit of the IC50 range, or the IC50 itself (or its bound) where no Upper value is listed; read-out: DU145 IC50 (μm) Lower (μm)
Measurement kind: IC50

CC(=O)Oc1ccc(/C=C2\Sc3cc(C)ccc3NC2=O)cc1[N+](=O)[O-] [Compound 4]	≥ 1000 nM
O=C1Nc2cc(S(=O)(=O)Cc3c(Cl)cccc3Cl)ccc2S/C1=C\c1ccc(F)cc1F [Compound 30]	≥ 1000 nM
O=C1Nc2cc(S(=O)(=O)Cc3c(Cl)cccc3Cl)ccc2S/C1=C\c1ccc(Cl)cc1Cl [Compound 22]	≥ 1000 nM

# input for lookup
Data request: Param item = Cc1ccc(S(=O)(=O)Oc2ccc(/C=C3\Sc4ccc(S(=O)(=O)Cc5c(Cl)cccc5Cl)cc4NC3=O)cc2[N+](=O)[O-])cc1 [Compound 38] ; retrieve measured IC50.
Data returned: 90 nM

---

Each item that follows carries a reported pIC50.
- System: DU145 (prostate cancer)
- Assay procedure: Cytotoxicity assay, DU145 tumor cells
- Type: cell-based
- Experimental parameters: Homo sapiens, DU-145; 96 h treatment; lower limit of the IC50 range, or the IC50 itself (or its bound) where no Upper value is listed; read-out: DU145 IC50 (μm) Lower (μm)
- Description: The effect of the compounds of the invention on tumor cells was determined by the assay described by Latham et al., Oncogene 12:827-837 (1996). […] When necessary, the total number of viable cells was determined by trypsinizing the wells and counting the number of viable cells, as determined by trypan blue exclusion, using a hemacytometer. Where “Lower” and “Upper” value are provided in Table 5, the IC50 was determined to be within that range. […]
pIC50: −log10 of the molar value.

Would you please look over these solved cases?
O=C1Nc2cc(S(=O)(=O)Cc3c(Cl)cccc3Cl)ccc2S/C1=C\c1ccc(OCc2ccccc2)c([N+](=O)[O-])c1	5.82
O=C1Nc2cc(S(=O)(=O)Cc3c(Cl)cccc3Cl)ccc2S/C1=C\c1ccc(Cl)cc1	≤ 6.00
CC(=O)Oc1ccc(/C=C2\Sc3cc(Br)ccc3NC2=O)cc1[N+](=O)[O-]	≤ 5.00
CC(=O)Oc1ccc(/C=C2\Sc3ccc(F)cc3NC2=O)cc1[N+](=O)[O-]	≤ 6.00
COc1ccc(/C=C2\Sc3ccc(S(=O)(=O)Cc4c(Cl)cccc4Cl)cc3NC2=O)cc1[N+](=O)[O-]	≤ 6.60

Data request: Param item = CC(=O)Oc1ccc(/C=C2\Sc3ccc(S(=O)(=O)Cc4c(Cl)cccc4Cl)cc3NC2=O)cc1 ; retrieve measured pIC50.
Data returned: > 6.00

Data request: Param item = CC(=O)Oc1ccc(/C=C2\Sc3ccc(S(=O)(=O)Cc4c(Cl)cccc4Cl)cc3NC2=O)cc1[N+](=O)[O-] ; retrieve measured pIC50.
Data returned: 7.00

Data request: Param item = O=C1Nc2cc(S(=O)(=O)Cc3c(Cl)cccc3Cl)ccc2S/C1=C\c1ccc(F)cc1 ; retrieve measured pIC50.
Data returned: ≤ 6.00

---

- Test system: DU145 (prostate cancer)
- Assay procedure: Cytotoxicity assay, DU145 tumor cells
- Format: cell-based
- Experimental parameters: Homo sapiens, DU-145; 96 h treatment; lower limit of the IC50 range, or the IC50 itself (or its bound) where no Upper value is listed; read-out: DU145 IC50 (μm) Lower (μm)
Measurement kind: IC50

O=C1Nc2cc(S(=O)(=O)Cc3c(Cl)cccc3Cl)ccc2S/C1=C\c1cccs1	≥ 500 nM
O=C1Nc2ccc(F)cc2S/C1=C\c1ccc(O)c([N+](=O)[O-])c1	750 nM
CC(=O)Oc1ccc(/C=C2\Sc3cc(C(=O)O)ccc3NC2=O)cc1[N+](=O)[O-]	> 100000 nM
COc1ccc(/C=C2\Sc3ccc(S(=O)(=O)Cc4c(Cl)cccc4Cl)cc3NC2=O)cc1N	≥ 250 nM
O=C1Nc2cc(S(=O)(=O)Cc3c(Cl)cccc3Cl)ccc2S/C1=C\c1ccc(-c2nn[nH]n2)cc1	≥ 1000 nM

Data request: Param item = O=C1Nc2ccc(F)cc2S/C1=C\c1ccc(OCc2ccccc2)c([N+](=O)[O-])c1 ; retrieve measured IC50.
Data returned: > 10000 nM

Data request: Param item = CC(=O)n1cc(/C=C2\Sc3ccc(S(=O)(=O)Cc4c(Cl)cccc4Cl)cc3NC2=O)c2ccccc21 ; retrieve measured IC50.
Data returned: ≥ 500 nM

Data request: Param item = Nc1ccc(/C=C2\Sc3ccc(S(=O)(=O)Cc4c(Cl)cccc4Cl)cc3NC2=O)cc1 ; retrieve measured IC50.
Data returned: 40 nM

Data request: Param item = CN1CCN(c2ccc(/C=C3\Sc4ccc(S(=O)(=O)Cc5c(Cl)cccc5Cl)cc4NC3=O)cc2)CC1 ; retrieve measured IC50.
Data returned: ≥ 1000 nM

Data request: Param item = O=C1Nc2cc(S(=O)(=O)Cc3c(Cl)cccc3Cl)ccc2S/C1=C\c1ccnc(N2CCOCC2)n1 ; retrieve measured IC50.
Data returned: ≥ 1000 nM
